These entries and their values trace back to the supplement of paper PMC10567573.

B1: BTBD10 (parent)
chain: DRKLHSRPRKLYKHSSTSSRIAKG

- Variants of: B1
- protocol_description: protein stability index of a GFP-peptide fusion (GPS, HEK-293T) (PSI 1-6); higher = more stable;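 note: lentivirally expressed fusions sorted by FACS into six bins by GFP to DsRed ratio, PSI derived from sequencing read proportions per bin multiplied by bin number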
- experimental_conditions: c terminus: a fixed tail appended
measurement_name: protein stability index
Hey, just send me the number, nothing else.

Below: 10 variants and their reported protein stability index.
mutation_code | protein stability index
S16M | 4
S19R | 4.53
S19G | 3.57
K13C | 3.68
P8L | 2.76
D1A | 3.27
S15G | 4.49
K3M | 3.56
Y12E | 4.28
K3I | 3.47

Q: Give the measured protein stability index of L4C .
A: 3.9
